# test: cytotoxicity in OVCAR8 ovarian cancer cells, dose response, PAX8 project, cell-based, plate reader, dry powder samples (AID 743197)
# Type: functional
# experimental-parameters: OVCAR-8
Active and inactive are the calls of the source.
Known AC50 of a selection of molecules

These solved cases illustrate the format of a correct answer.
1. C[C@H](CO)N1C[C@H](C)[C@@H](CN(C)Cc2ccc(-c3ccccc3)cc2)Oc2ccc(NS(=O)(=O)c3ccc(F)cc3)cc2CC1=O; 55.8 µM (active)
2. COc1ccc2c3c(n(C)c2c1)[C@H](CO)N(Cc1ccccc1)CC31CCN(S(=O)(=O)c2ccc(C)cc2)CC1; 13.2 µM (active)
3. C[C@H](CO)N1C[C@H](C)[C@H](CN(C)S(=O)(=O)c2ccc(F)cc2)OCCCC[C@H](C)Oc2ccc(NC(=O)Nc3ccc(F)cc3)cc2C1=O; > 70 µM (inactive)

Next molecule, AC50 to be filled in.
Query: Requested field: AC50. Item: COc1cccc(C#Cc2ccc([C@H]3[C@@H](CO)N(C(=O)c4ccccn4)[C@H]3C#N)cc2)c1
Response: 51.4 µM (active)

====

# target-or-system: UniProt:Q2TB90
# Sequence (Q2TB90 whole entry): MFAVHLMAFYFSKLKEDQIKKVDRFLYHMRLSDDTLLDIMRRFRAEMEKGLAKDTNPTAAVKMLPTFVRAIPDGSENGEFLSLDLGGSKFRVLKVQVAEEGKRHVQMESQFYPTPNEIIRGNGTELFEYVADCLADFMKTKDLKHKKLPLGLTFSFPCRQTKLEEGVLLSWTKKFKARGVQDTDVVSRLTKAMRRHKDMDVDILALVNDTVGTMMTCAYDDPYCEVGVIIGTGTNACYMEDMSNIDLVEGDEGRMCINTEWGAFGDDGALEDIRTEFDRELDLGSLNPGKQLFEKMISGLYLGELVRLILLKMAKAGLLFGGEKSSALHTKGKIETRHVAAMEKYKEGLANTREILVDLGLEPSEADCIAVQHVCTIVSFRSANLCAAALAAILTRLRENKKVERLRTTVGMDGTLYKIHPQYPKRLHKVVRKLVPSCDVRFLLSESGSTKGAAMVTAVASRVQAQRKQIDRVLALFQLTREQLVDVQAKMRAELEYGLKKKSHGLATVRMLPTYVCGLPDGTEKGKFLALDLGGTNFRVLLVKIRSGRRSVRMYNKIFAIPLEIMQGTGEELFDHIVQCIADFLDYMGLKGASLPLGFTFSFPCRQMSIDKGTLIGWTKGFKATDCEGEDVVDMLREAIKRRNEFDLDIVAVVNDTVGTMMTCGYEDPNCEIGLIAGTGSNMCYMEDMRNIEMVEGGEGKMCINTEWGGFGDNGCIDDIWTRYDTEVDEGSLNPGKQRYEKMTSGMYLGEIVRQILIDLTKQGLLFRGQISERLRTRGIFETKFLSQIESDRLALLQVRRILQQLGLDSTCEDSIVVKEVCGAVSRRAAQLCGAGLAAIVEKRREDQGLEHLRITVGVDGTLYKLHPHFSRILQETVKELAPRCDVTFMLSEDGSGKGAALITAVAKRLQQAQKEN
# test: HKDC1 hexokinase inhibitors, dose response, biochemical, W721R variant (AID 504729)
# Assay type: functional
Active and inactive are the calls of the source.
Just give me one of these, please: active, inactive

These recorded examples may help you get a feel for the data.
1. O=C(O)COc1ccc(/C=N/NC(=O)c2ccc(-c3csc(Nc4ccc(Cl)cc4)n3)cc2)cc1; inactive
2. O=C1c2ccccc2-c2onc3ccc(Oc4ccccc4)c1c23; inactive
3. CC(C)(C)c1c(Cl)c(O)c(-c2ccccc2)c(=O)n1-c1ccccc1; active

Please find the next compound below.
Query: Entry CCOC(=O)CSc1nc2ccc(C)cc2n2cnnc12 : call = ?
Response: active

====

# test: P. falciparum Dd2 growth inhibitors, dose response, SYBR Green, cherry-picked samples (AID 1159567)
# Format: functional, cell-based
Calls of active or inactive are those of the source.
measurement-kind: AC50

1. C[C@@H]1CN([C@@H](C)CO)C(=O)c2cc(NC(=O)Nc3ccccc3)ccc2O[C@@H]1CN(C)C(=O)Nc1cccc2ccccc12; 8.14 µM (active)
2. C[C@@H]1CN([C@H](C)CO)C(=O)c2c(c3ccccc3n2C)-c2ccccc2CO[C@H]1CN(C)S(=O)(=O)c1ccsc1; 4.22 µM (active)
3. COc1cccc(C#Cc2ccc([C@@H]3[C@@H](C#N)N(C(=O)c4ccccn4)[C@H]3CO)cc2)c1; 3.29 µM (active)
4. Cc1cccc(-c2ccc([C@@H]3[C@@H]4CN(C(=O)CN(C)C)C[C@H]3N4)cc2)c1; 3.46 µM (active)
5. CCCC(=O)N1CCC2(CC1)CN(S(=O)(=O)c1ccc(C)cc1)[C@@H](CO)c1[nH]c3cc(OC)ccc3c12; < 0.3 µM (active)

Then there is this molecule:
Query: What does the record list as AC50 for COc1ccc(S(=O)(=O)Nc2cccc3c2O[C@H](CN(C)Cc2ccc(-c4ccccc4)cc2)[C@@H](C)CN([C@H](C)CO)C3=O)cc1 ?
Response: 0.955 µM (active)

====

# target-or-system: Short transient receptor potential channel 4 (Mus musculus)
# Sequence (Q9QUQ5 whole entry): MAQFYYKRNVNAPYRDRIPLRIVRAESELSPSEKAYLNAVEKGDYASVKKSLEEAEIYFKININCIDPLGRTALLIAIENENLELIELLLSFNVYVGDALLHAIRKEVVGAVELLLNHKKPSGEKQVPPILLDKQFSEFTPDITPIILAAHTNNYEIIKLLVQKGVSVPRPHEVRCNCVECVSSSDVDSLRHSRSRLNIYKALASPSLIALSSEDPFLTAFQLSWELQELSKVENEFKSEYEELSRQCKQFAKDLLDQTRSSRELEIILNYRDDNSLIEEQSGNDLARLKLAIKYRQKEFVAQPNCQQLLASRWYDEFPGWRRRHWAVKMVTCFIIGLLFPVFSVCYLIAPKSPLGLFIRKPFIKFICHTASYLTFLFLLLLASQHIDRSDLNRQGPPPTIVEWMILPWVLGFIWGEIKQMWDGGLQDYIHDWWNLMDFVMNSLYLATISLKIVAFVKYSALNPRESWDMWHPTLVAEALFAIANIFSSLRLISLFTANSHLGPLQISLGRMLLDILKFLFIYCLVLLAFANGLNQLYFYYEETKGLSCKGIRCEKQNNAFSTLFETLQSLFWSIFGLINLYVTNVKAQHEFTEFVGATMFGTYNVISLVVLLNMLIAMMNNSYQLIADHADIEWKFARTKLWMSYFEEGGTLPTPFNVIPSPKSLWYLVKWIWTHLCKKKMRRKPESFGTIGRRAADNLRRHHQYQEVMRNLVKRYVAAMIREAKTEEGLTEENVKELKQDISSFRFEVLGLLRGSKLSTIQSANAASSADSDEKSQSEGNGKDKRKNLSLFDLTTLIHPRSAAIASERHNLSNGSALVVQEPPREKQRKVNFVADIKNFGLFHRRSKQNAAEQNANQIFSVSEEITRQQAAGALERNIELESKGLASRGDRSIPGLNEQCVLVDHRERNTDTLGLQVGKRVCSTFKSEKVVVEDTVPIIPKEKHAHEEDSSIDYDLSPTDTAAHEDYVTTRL
# test: mouse TRPC4 channel activators, dose response, cell-based, HEK293 TRPC4/mu-opioid, Fluo-4 calcium (AID 434937)
# Format: functional
Activity calls are given as the source filed them.
measurement-kind: EC50

See these solved cases before continuing.
1) CN(C)CCCN(C(=O)c1ccc(S(=O)(=O)N(C)C)cc1)c1nc2ccc(F)cc2s1; 9.44 µM (active)
2) Cc1ccc2nc3c(O)n(CCc4c[nH]cn4)cnc-3c2c1; 1.88 µM (active)
3) OC1(c2ccccc2)C[N+](c2ccccc2)=C2SCCN21 (centres undefined); 1.88 µM (active)
4) CN(C)CCN(C(=O)c1cccc2ccccc12)c1nc2cc3c(cc2s1)OCO3; 5.96 µM (active)

Query: EC50; subject: CCn1c(N2CCN(CC(=O)Nc3cccc(C)c3C)CC2)nc2ccccc21
Response: 2.11 µM (active)

Query: For the compound shown here, O=C(C[n+]1cc2ccccc2c2ccccc21)c1ccccc1 , give the reported EC50.
Response: 4.22 µM (active)

Query: Using the record for COc1ccc(-c2cc(C#N)nc(N3CCNCC3)n2)cc1 , report its EC50.
Response: 1.88 µM (active)

====

# Tested on: Vero
# test: cells
# Assay type: functional
# experimental-parameters: Chlorocebus sabaeus
Activity calls are given as the source filed them.
Reported CC50 values for a set of molecules

1. CN(C)c1n/c(=N/c2cccc(Cl)c2)ss1; 21.6 µM (active)
2. Cc1ccc(N(Cc2cc(O)nc3ccccc23)C(=O)CCl)cc1; 6.57 µM (active)
3. CCCCCOc1ccc(/C(C)=N/NC2=NCCN2)cc1; > 25 µM (active)

Now look at this entry.
Query: Given COc1ccc(Br)cc1C(C[N+](=O)[O-])c1c(N)n(C)c(=O)n(C)c1=O (centres undefined) , state its recorded CC50.
Response: 10.5 µM (active)

====

# target-or-system: Induced myeloid leukemia cell differentiation protein Mcl-1 (Homo sapiens, UniProt Q07820)
# Sequence (Q07820 whole entry): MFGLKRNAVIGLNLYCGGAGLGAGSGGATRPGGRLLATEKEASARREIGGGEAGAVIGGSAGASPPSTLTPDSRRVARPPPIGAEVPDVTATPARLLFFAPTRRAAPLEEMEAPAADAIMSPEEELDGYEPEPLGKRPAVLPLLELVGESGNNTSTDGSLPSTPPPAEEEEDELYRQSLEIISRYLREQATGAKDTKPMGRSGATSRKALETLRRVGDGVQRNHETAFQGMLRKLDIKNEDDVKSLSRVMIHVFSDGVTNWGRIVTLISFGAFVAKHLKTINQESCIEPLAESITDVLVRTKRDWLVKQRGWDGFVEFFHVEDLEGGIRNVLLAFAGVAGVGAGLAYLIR
# Assay type: functional
The source made the active and inactive calls.
measurement-kind: IC50

Field: example entries. Status: answers known.
1) O=C(O)COc1ccc(/C=N/NC(=O)c2ccc(-c3csc(Nc4ccc(Cl)cc4)n3)cc2)cc1; 0.886 µM (active)
2) O=[N+]([O-])c1ccc(O)c(/C=N/Nc2ccc(Cl)nn2)c1; 14.1 µM (active)
3) O=C(O)c1ccc(-n2cccc2/C=C2/NC(=O)N(c3ccccc3)C2=O)cc1; 3.51 µM (active)
4) O=C(Nc1cccc(Cl)c1)Nc1nnc(-c2ccncc2)s1; 3.12 µM (active)
5) CCC(=O)NC1=C(Cl)C(=O)C(NC(=O)CC)=C(Cl)C1=O; 4.29 µM (active)
6) COc1cccc2c(=O)c3cccc(N)c3[nH]c12; 6.38 µM (not active)

Query: Reported IC50 for Induced myeloid leukemia cell differentiation protein Mcl-1 (Homo sapiens, UniProt Q07820), given Cc1nc(N)sc1-c1csc(Nc2ncccn2)n1 ?
Response: 3.69 µM (active)

Query: Recorded IC50 for CC(/C=C1\SC(=S)N(NS(=O)(=O)c2ccccc2)C1=O)=C\c1ccccc1 with Induced myeloid leukemia cell differentiation protein Mcl-1 (Homo sapiens, UniProt Q07820), please?
Response: 20.6 µM (active)

Query: Request body: readout IC50, system Induced myeloid leukemia cell differentiation protein Mcl-1 (Homo sapiens, UniProt Q07820), query O=C(Nc1ccc2nc3ccccc3nc2c1)c1ccccc1 . Return the value.
Response: > 54 µM (active)

Query: Hi! What's the reported IC50 for COc1ccc2[nH]c([S+]([O-])Cc3ncc(C)c(OC)c3C)nc2c1 (stereo not given) on Induced myeloid leukemia cell differentiation protein Mcl-1 (Homo sapiens, UniProt Q07820)?
Response: 3.14 µM (active)

Query: // fetch Induced myeloid leukemia cell differentiation protein Mcl-1 (Homo sapiens, UniProt Q07820) IC50 for CC(C)CNC(=O)c1c(N)n(Cc2ccco2)c2nc3ccccc3nc12
Response: 4.4 µM (not active)

Query: Record lookup: for Induced myeloid leukemia cell differentiation protein Mcl-1 (Homo sapiens, UniProt Q07820), what IC50 belongs to COc1cc2cc3c(N)c(C(=O)Nc4sc(C)c(C)c4C#N)sc3nc2cc1OC ?
Response: 1.26 µM (active)

Query: What is its IC50 for Induced myeloid leukemia cell differentiation protein Mcl-1 (Homo sapiens, UniProt Q07820)? Entry: COc1ccc(C(=O)Nc2nc3c(s2)Cc2cc(OC)ccc2-3)cc1
Response: 3.75 µM (active)

Query: Return IC50 measured with Induced myeloid leukemia cell differentiation protein Mcl-1 (Homo sapiens, UniProt Q07820) given this molecule: Cc1ccc(NC(=O)CN2C(=O)S/C(=C\c3cccn3-c3cccc(C(=O)O)c3)C2=O)c(C)c1
Response: > 54 µM (active)

Query: Param readout = IC50; param system = Induced myeloid leukemia cell differentiation protein Mcl-1 (Homo sapiens, UniProt Q07820); param query = COc1ccccc1NC(=O)c1cc2cc(Br)ccc2cc1O ; response: value
Response: 2.63 µM (active)

====

# target-or-system: Sentrin-specific protease 8 (Homo sapiens, UniProt Q96LD8);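 note: luminescence read-out of SENP8 inhibition, dose-response confirmation following an ultra-high-throughput screen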
# Sequence (Q96LD8 whole entry): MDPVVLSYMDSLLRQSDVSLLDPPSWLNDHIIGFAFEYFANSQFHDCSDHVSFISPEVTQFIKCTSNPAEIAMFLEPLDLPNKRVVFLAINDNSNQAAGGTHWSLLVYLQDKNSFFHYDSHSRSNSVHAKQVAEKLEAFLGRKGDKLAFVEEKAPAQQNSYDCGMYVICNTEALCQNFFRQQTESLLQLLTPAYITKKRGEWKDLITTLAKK
# Type: functional
Activity calls are given as the source filed them.
I would appreciate it if you answered using one of these outcomes: yes = active, no = inactive

1) COc1ccc(-c2cc(-c3cc(C)ccc3O)n[nH]2)cc1; yes

Query: Dear colleague, could you share the recorded outcome for Cc1oc2c(c1C(=O)c1ccccc1)C(=O)C(=O)c1ccccc1-2 when you have a moment?
Response: yes

Query: Tell me the assay call for O=C(Nc1cccs1)Nc1ccc(Br)cc1F please.
Response: no
